meta.source: patent US6090828A

target: smooth muscle angiotensin II receptor; experiment: Assay A: Angiotensin II Binding Activity; conditions: 50% displacement of specifically bound 125I-AII; rat uterine membranes; pH 7.5; 25° C., 60 min
observed property: IC50 (nM)
Form entry: value (nM) — number only.

Any idea what IC50 came out for CCCCn1nc(C(F)(F)CC)nc1Cc1ccc(-c2ccccc2-c2nnn[nH]2)nc1 on smooth muscle angiotensin II receptor? 420

Any idea what IC50 came out for CCCCn1nc(C2OCC(C)(C)CO2)nc1Cc1ccc(-c2ccccc2-c2nnn[nH]2)nc1 on smooth muscle angiotensin II receptor? 21

Any idea what IC50 came out for CCCCn1nc(CCc2ccccc2)nc1Cc1ccc(-c2ccccc2-c2nnn[nH]2)nc1 on smooth muscle angiotensin II receptor? 17

Any idea what IC50 came out for CCCCn1nc(-c2ccccc2Cl)nc1Cc1ccc(-c2ccccc2-c2nnn[nH]2)nc1 on smooth muscle angiotensin II receptor? 54

Any idea what IC50 came out for CCCCn1nc(C(F)(F)CCC)nc1Cc1ccc(-c2ccccc2-c2nnn[nH]2)nc1 on smooth muscle angiotensin II receptor? 26

Any idea what IC50 came out for CCCCc1nc(Cc2ccc(-c3ccccc3-c3nnn[nH]3)nc2)n(CCCC)n1 on smooth muscle angiotensin II receptor? 14

Any idea what IC50 came out for CCCCn1nc(C(OC(C)C)OC(C)C)nc1Cc1ccc(-c2ccccc2-c2nnn[nH]2)nc1 on smooth muscle angiotensin II receptor? 88

Any idea what IC50 came out for CCCCn1nc(C2OCCCO2)nc1Cc1ccc(-c2ccccc2-c2nnn[nH]2)nc1 on smooth muscle angiotensin II receptor? 20
